Consider the following molecules; for each one, report its Log P (n-octanol/water).
# experiment.notes: Log P (n-octanol/water) of perfuming compounds
# measurement.parameters: Table 7, citrus note
Structures can show the parent of a compound that is named as a salt.
Numbers only.

Illustrative cases are given below, each with its answer.
molecule | Log P (n-octanol/water)
CCCCCCCCC=O | 3.42
O=C(OCc1ccccc1)c1ccccc1 [BENZYL BENZOATE] | 3.64
CC(C)(O)CCC1CCCCC1 | 3.93
CCCCCC=O | 2.00
C/C=C/c1ccc(OC(C)=O)c(OC)c1 | 2.56
CCCCCCOC(=O)c1ccccc1O [HEXYL 2-HYDROXYBENZOATE] | 5.55

# map each molecule to its Log P (n-octanol/water)
1. O=COCCc1ccccc1 [2-PHENYLETHYL FORMATE]
2. O=C1CCCCCCC/C=C/CCCCCCO1 [(10E)-oxacycloheptadec-10-en-2-one]
3. CCCC1CCCC(=O)O1 (racemic) [(+−)-6-propyltetrahydro-2H-pyran-2-one]
4. CCCCCCCOC(C)=O [heptyl acetate]
5. C=CC(C)(CCC=C(C)C)OC(C)=O (racemic)

Response:
[1.90, 6.15, 1.47, 3.69, 4.04]

====

# experiment.notes: Volatility of perfuming compounds in air
# Assay type: physicochemical
# measurement.parameters: Table 6, perfuming compounds having a fruity note
metric.name: Volatility (μg/l air)

molecule | Volatility (μg/l air)
C/C=C(\C)C(=O)OCc1ccccc1 [BENZYL (E)-2-METHYL-2-BUTENOATE] | 33.88 μg/l air
C[C@H]1[C@@H]2C[C@H](C[C@@]13C=CC(=O)CC3)C2(C)C | 4.14 μg/l air

# map each molecule to its Volatility (μg/l air)
1. CCCCCC1CCCC(=O)O1 (racemic) [(+−)-6-pentyltetrahydro-2H-pyran-2-one]
2. C/C=C/C(=O)C1C(C)=CCCC1(C)C (racemic)

Response:
1: 9.61 μg/l air; 2: 113.31 μg/l air

====

Consider the following molecules; for each one, report its Volatility (μg/l air).
# experiment.notes: Volatility of perfuming compounds in air
# Format: physicochemical
# measurement.parameters: Table 8, perfuming compounds having a sweet note
One number for each entry, in μg/l air.

Illustrative cases are given below, each with its answer.
molecule | unit.tag | Volatility (μg/l air)
Cc1ncsc1CCO [2-(4-METHYL-1,3-THIAZOL-5-YL)-1-ETHANOL] | μg/l air | 2.36
C=C(C)CC(C)OC(=O)C(C)C (racemic) | μg/l air | 9902.98
C/C=C/c1ccc(O)c(OC)c1 [2-methoxy-4-[(1E)-1-propen-1-yl]phenol] | μg/l air | 11.28
CC(C)Cc1ccc2ccccc2n1 [2-ISOBUTYLQUINOLINE] | μg/l air | 8.73
C=CCSSCC=C [DIALLYL DISULFIDE] | μg/l air | 5487.52
CCc1occc(=O)c1O [2-ETHYL-3-HYDROXY-4(4H)-PYRANONE] | μg/l air | 48.86
CC1OCCC12NCCS2 (racemic) | μg/l air | 52.47
CC(=O)CCC1=C(C)CCCC1(C)C | μg/l air | 63.61
C=C1CCCC(C)(C)C1C(=O)/C=C/C (racemic) | μg/l air | 152.99
COc1ccc(CCC(C)=O)cc1 [4-(4-METHOXYPHENYL)-2-BUTANONE] | μg/l air | 5.58

Query: Would you kindly share the measured Volatility (μg/l air) for CCCC1CCC(=O)O1 (racemic) [(+−)-4-HEPTANOLIDE] ?
Response: 295.34
